B1: CPEB3 Ribozyme (parent)
chain: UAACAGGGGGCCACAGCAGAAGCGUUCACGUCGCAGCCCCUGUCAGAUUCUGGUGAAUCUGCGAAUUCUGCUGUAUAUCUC

Variants of: B1
Test: self-cleavage, relative activity (ratio to wild type); higher = more cleavage; in vitro, sequencing
Answer not met if self-cleavage is under 0.4, and met if it is 0.4 or more.

>>> print(df.to_string())
                               sequenceentry  assignedclass
 0  UAACAGGGGGCCAGCGCAGAAGCGUUCACGUCGCAGCCCCUGUCAGAUUCUGGUGAAUCUGCGAAUUCUGCUGUAUAUCUC [C14G A15C]        not met
 1  UAACAGGGGGCCACAGCAGAAGCGUUCACGUCGCAGCCCCUGACAGAUUCUGGAGAAUCUGCGAAUUCUGCUGUAUAUCUC [U43A U54A]            met
 2  UAACAGGGGGCCACAGCAGAAGCGUUCACGUCGCAGCCCCUGUCAGAUUCUAGAGAAUCUGCGAAUUCUGCUGUAUAUCUC [G52A U54A]            met
 3  UAACAGGGGGCCACCGCAGAAGCGUUCACGUCGCAGCCCCUGUCAGAUUCUGGUGAAUCUGCGAUUUCUGCUGUAUAUCUC [A15C A65U]        not met
 4  UAACAGGGGACCACAGCAGAAGCGUUCACGUCACAGCCCCUGUCAGAUUCUGGUGAAUCUGCGAAUUCUGCUGUAUAUCUC [G10A G33A]        not met
 5  UAACAGGGGGCCACAGCAGAAGCGUUCACGUCGCAGCCCCUGUCAGAUUCUGGGGAAUCUGCGAAUUCUGCGGUAUAUCUC [U54G U72G]            met
 6  UGACAGGGGGCCACAGCAGAAGCGUUCACGUCGCAACCCCUGUCAGAUUCUGGUGAAUCUGCGAAUUCUGCUGUAUAUCUC [A2G G36A]        not met
 7  UAACAGGGGGCCACAGCAGAAGCGUUCACGUCGCAGCCCCUUUCAGAUUCUGGUGGAUCUGCGAAUUCUGCUGUAUAUCUC [G42U A56G]            met
 8  UAACAGGGGGCCACAGCAGAAGCGUUCACGUCGCAGCCCCUGUCAGAUUCUGGUGAAUUAGCGAAUUCUGCUGUAUAUCUC [C59U U60A]        not met
 9  UAACAGGGGGCCACAGCAGGAGCGUUCACGUCGCAGCCCCUGUAAGAUUCUGGUGAAUCUGCGAAUUCUGCUGUAUAUCUC [A20G C44A]        not met
10  UAACAGGGGGCCACUGCAGAAGCGUUCACGUCGCAGCCCCUGUCAGAUUCUGGUGAAUCUGCGAUUUCUGCUGUAUAUCUC [A15U A65U]        not met
11  UAACAGCGGGCCACAGCAGAAGCGUUCACGUCGCAGCCCCUGUCAGGUUCUGGUGAAUCUGCGAAUUCUGCUGUAUAUCUC [G7C A47G]            met
12  UAACAGGGGGCCACAGCAGAAGCGUUCACGUAGCAGCCCCUGUCAGAUUCUGGUGAAUCUGCGAAUUCUGCCGUAUAUCUC [C32A U72C]        not met
13  UAACAGGGGGGCAUAGCAGAAGCGUUCACGUCGCAGCCCCUGUCAGAUUCUGGUGAAUCUGCGAAUUCUGCUGUAUAUCUC [C11G C14U]            met
14  UAACAGGUGGCCACAGCAGAAGCGUUCACGUCGCAACCCCUGUCAGAUUCUGGUGAAUCUGCGAAUUCUGCUGUAUAUCUC [G8U G36A]        not met
15  UAACAGGGGGCCACAGCAGAAGCGUUCACGUCGCAGCCCCUGUCAGAUUCUGGUGAAUCUGCGCGUUCUGCUGUAUAUCUC [A64C A65G]        not met
16  UAACAGGAGGCCACAGCAGAAGCGUCCACGUCGCAGCCCCUGUCAGAUUCUGGUGAAUCUGCGAAUUCUGCUGUAUAUCUC [G8A U26C]        not met
17  UAACAGGGGGCCACAGCAGAGGCGUUCACGUCGCAGCCCCUGUAAGAUUCUGGUGAAUCUGCGAAUUCUGCUGUAUAUCUC [A21G C44A]        not met
18  UAACAGGGGGCCACAGCAGAAGCCUUCACGCCGCAGCCCCUGUCAGAUUCUGGUGAAUCUGCGAAUUCUGCUGUAUAUCUC [G24C U31C]        not met
19  UAACAGGGGGCCACAGCACAAGCGUUCACGUCGCAGCCCCUGUCAGAUUCUGGUGAAUCUGCGAAUUCUGCUGCAUAUCUC [G19C U74C]        not met
20  UAACAGGGGGCCACAGCAGAGGCGUUCACGUCGCAGCCCCUGUCAGAUUCUGGUGCAUCUGCGAAUUCUGCUGUAUAUCUC [A21G A56C]        not met
21  UAACAGGGGGCCACAGCAGAAGCGUUCACGUCGCAGCCCCUGUCAGAUUCGGGUGAAUCUACGAAUUCUGCUGUAUAUCUC [U51G G61A]            met
22  UAACAGGGGGCCACAGCAGAAGCGUUCACGUCGCAGCCCCUGUCAGGCUCUGGUGAAUCUGCGAAUUCUGCUGUAUAUCUC [A47G U48C]        not met
